src = paper PMC7819943

Measured binding signal, listed per entry.
Test target: OsWRKY34 (Oryza sativa, UniProt Q0JBA9 1-250)
Sequence (Q0JBA9 entry or part of it): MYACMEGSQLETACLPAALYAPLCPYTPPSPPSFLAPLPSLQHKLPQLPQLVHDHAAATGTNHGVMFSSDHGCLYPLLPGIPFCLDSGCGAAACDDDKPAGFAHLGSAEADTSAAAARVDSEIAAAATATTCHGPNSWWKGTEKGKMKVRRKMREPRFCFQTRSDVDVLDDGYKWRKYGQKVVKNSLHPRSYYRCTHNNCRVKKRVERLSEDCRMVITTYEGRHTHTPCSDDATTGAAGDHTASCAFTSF
Test method notes: protein-binding microarray (RPBM); PBS, 2% BSA, 51.3 ng/ul salmon testes DNA, 50 uM zinc acetate, 200 nM TF, 25 C, 1 h; high values mean tight binding
Test conditions: protein: recombinant; tags: N-terminal polyhistidine and DsRed monomer fusion (pET32a); label: CyDye5-dUTP incorporated in the synthesized complementary strand; 3' TTTTT single-stranded linker to array surface; dsDNA, one strand shown
In all, about 68,000 sequences were measured (“fluorescence intensity (a.u.)”: median about 9,100, highest 2% from about 16,000 on). Shown is part of a subset that was picked to be rich in the highest values.

Worked cases, binding signal given:
Request: binding signal, test system OsWRKY34 (Oryza sativa, UniProt Q0JBA9 1-250), entry TTTCTTTCCTGTTTTAGGAGGGTTTTCCACGTTAAATCTTCGGAGTCACCTAGTGCAG
8290 fluorescence intensity (a.u.)

Give binding signal (OsWRKY34 (Oryza sativa, UniProt Q0JBA9 1-250)) of the following sequence: ACTGTGAATGTGTGACTAAATGGGCCGAGCCCAACTACTACGGAGTCACCTAGTGCAG
9860 fluorescence intensity (a.u.)

State its binding signal on OsWRKY34 (Oryza sativa, UniProt Q0JBA9 1-250): TATTGTGTACTACATCTTTTATTATTTCTTTCAAATTTCACGGAGTCACCTAGTGCAG
10500 fluorescence intensity (a.u.)

What binding signal appears in the records for this sequence with OsWRKY34 (Oryza sativa, UniProt Q0JBA9 1-250)? ATCAAACCACTTCCATCTCTCAATTCTCAAGCACACACACCGGAGTCACCTAGTGCAG
8310 fluorescence intensity (a.u.)

Provide the documented binding signal with OsWRKY34 (Oryza sativa, UniProt Q0JBA9 1-250) as the system for AGGGAGAGTGTGGGTGCGTGGGGCATATGGTGGTGCGGTGCGGAGTCACCTAGTGCAG
9950 fluorescence intensity (a.u.)

Others:
For OsWRKY34 (Oryza sativa, UniProt Q0JBA9 1-250), provide binding signal of TGGGGTATGTGTGCTTGGTTATGTGTGCATCTTAGTTATACGGAGTCACCTAGTGCAG please.
19300 fluorescence intensity (a.u.)

Test system OsWRKY34 (Oryza sativa, UniProt Q0JBA9 1-250); read-out binding signal; what value for CCACCAGCGATTTGGCCCGATCTCATCCCACCAGCGATTTCGGAGTCACCTAGTGCAG ?
8430 fluorescence intensity (a.u.)

Param readout= binding signal; system= OsWRKY34 (Oryza sativa, UniProt Q0JBA9 1-250); entry= CTCACTCCTGGCGCCGGTGACCTCTCTGCCACTCCACCGGCGGAGTCACCTAGTGCAG ; returns value.
8550 fluorescence intensity (a.u.)

Record ATAAATTATTAGTACTATTCCATATACTACATTTTCTTCTCGGAGTCACCTAGTGCAG : what is its binding signal with OsWRKY34 (Oryza sativa, UniProt Q0JBA9 1-250)?
8440 fluorescence intensity (a.u.)

Request: binding signal, test system OsWRKY34 (Oryza sativa, UniProt Q0JBA9 1-250), entry TTCTTGGCTTGGCTCCTCTGGTGTTCTTGTGCTCTGGGTTCGGAGTCACCTAGTGCAG
9970 fluorescence intensity (a.u.)

Lab note: need binding signal for TAATTACCTCTCTTTAGTTTTGGGGTATGTGTGCTTGGTTCGGAGTCACCTAGTGCAG on OsWRKY34 (Oryza sativa, UniProt Q0JBA9 1-250), anyone have it?
9680 fluorescence intensity (a.u.)

Record ACCCGCCCCTGCTGCTCACCGCTCCAGCCTCCGCTCATCCCGGAGTCACCTAGTGCAG : what is its binding signal with OsWRKY34 (Oryza sativa, UniProt Q0JBA9 1-250)?
8790 fluorescence intensity (a.u.)
